Data origin, for the record: ChEMBL document CHEMBL5137049

Biological target: Programmed cell death protein 4 (Homo sapiens) (UniProt Q53EL6)
Sequence (Q53EL6 whole entry): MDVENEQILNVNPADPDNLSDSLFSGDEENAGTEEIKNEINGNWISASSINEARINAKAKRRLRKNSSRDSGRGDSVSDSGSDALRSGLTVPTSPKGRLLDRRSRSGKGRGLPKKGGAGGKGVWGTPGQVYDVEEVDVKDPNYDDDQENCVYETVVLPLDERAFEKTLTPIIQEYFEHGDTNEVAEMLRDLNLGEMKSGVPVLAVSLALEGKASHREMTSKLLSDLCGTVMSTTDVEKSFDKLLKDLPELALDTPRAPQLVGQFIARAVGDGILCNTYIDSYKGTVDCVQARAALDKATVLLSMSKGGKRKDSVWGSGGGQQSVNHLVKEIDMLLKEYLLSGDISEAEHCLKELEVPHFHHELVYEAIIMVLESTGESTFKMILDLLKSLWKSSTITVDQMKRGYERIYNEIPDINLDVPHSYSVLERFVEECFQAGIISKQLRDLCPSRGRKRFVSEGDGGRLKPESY
Assay: Inhibition of PDCD4 in human HeLa cells tranfected with pCI-neo-luciferase-PDCD4 3'-UTR plasmid assessed as fold change in luciferase signal by measuring relative luciferase unit by luciferase reporter assay; further: test concentration or dose not given here
Type: cell-based
Cut-off 1 on RLU: below means TRUE, at or above means FALSE.

smilesCode	classification
CCOC(=O)c1nc(-c2ccc(OC)cc2)oc1C	FALSE
Cc1ccc(S(=O)(=O)N(Cc2nc(-c3ccc(Cl)cc3)oc2C)[C@@H](C(=O)O)C(C)C)cc1	FALSE
COC(=O)[C@@H](C(C)C)N(Cc1nc(-c2ccc([N+](=O)[O-])cc2)oc1C)S(=O)(=O)c1ccc(OC)cc1	TRUE
Cc1oc(-c2ccccc2)nc1CCl	FALSE
COc1ccc(S(=O)(=O)N(Cc2nc(-c3ccc(OC)c(OC)c3)oc2C)[C@@H](C(=O)O)C(C)C)cc1	TRUE
COC(=O)[C@@H](C(C)C)N(Cc1nc(-c2ccccc2)oc1C)S(=O)(=O)c1ccc(OC)cc1	FALSE

Now let's try a different one.
[in] Please determine if COc1ccc(S(=O)(=O)N(Cc2nc(-c3cc(OC)c(OC)c(OC)c3)oc2C)[C@@H](C(=O)NO)C(C)C)cc1 is below 1 in terms of RLU.
[out] TRUE

---

Overview of recorded RLU for various molecules
Target: Programmed cell death protein 4 (Homo sapiens) (UniProt Q53EL6)
Experiment: Inhibition of PDCD4 in human HeLa cells tranfected with pCI-neo-luciferase-PDCD4 3'-UTR plasmid assessed as fold change in luciferase signal by measuring relative luciferase unit by luciferase reporter assay; further: test concentration or dose not given here
Type: cell-based

smilesCode	measurementName	assayValue
COc1ccc(S(=O)(=O)N(Cc2nc(-c3cc(OC)c(OC)c(OC)c3)oc2C)[C@@H](C(=O)O)C(C)C)cc1	RLU	1.02

Now consider the entry below.
[in] // Input: CCOC(=O)c1nc(-c2ccccc2)oc1C . Output its RLU only.
[out] 1.07

---

Overview of recorded RLU for various compounds
Molecular target: Programmed cell death protein 4 (Homo sapiens) (UniProt Q53EL6)
Assay: Inhibition of PDCD4 in human HeLa cells tranfected with pCI-neo-luciferase-PDCD4 3'-UTR plasmid assessed as fold change in luciferase signal by measuring relative luciferase unit by luciferase reporter assay; further: test concentration or dose not given here
Assay type: cell-based
Respond using a number only.

smilesCode	measurementName	assayValue
CCOC(=O)c1nc(-c2ccc(OC)c(OC)c2)oc1C	RLU	1.17
COC(=O)[C@@H](C(C)C)N(Cc1nc(-c2ccc(OC)c(OC)c2)oc1C)S(=O)(=O)c1ccc(OC)cc1	RLU	0.95
COc1ccc(S(=O)(=O)N(Cc2nc(-c3ccccc3)oc2C)[C@@H](C(=O)NO)C(C)C)cc1	RLU	0.98

[in] Retrieve RLU on Programmed cell death protein 4 (Homo sapiens) (UniProt Q53EL6); query COc1ccc(-c2nc(CN([C@@H](C(=O)O)C(C)C)S(=O)(=O)c3ccc(OC)cc3)c(C)o2)cc1
[out] 1

[in] Retrieve RLU on Programmed cell death protein 4 (Homo sapiens) (UniProt Q53EL6); query COc1ccc(-c2nc(CN([C@@H](C(=O)NO)C(C)C)S(=O)(=O)c3ccc(OC)cc3)c(C)o2)cc1
[out] 1.02

[in] Retrieve RLU on Programmed cell death protein 4 (Homo sapiens) (UniProt Q53EL6); query COC(=O)[C@@H](C(C)C)N(Cc1nc(-c2ccc(OC)c(OC)c2)oc1C)S(=O)(=O)c1ccc(C)cc1
[out] 0.95

[in] Retrieve RLU on Programmed cell death protein 4 (Homo sapiens) (UniProt Q53EL6); query Cc1oc(-c2ccc([N+](=O)[O-])cc2)nc1CCl
[out] 1.11

[in] Retrieve RLU on Programmed cell death protein 4 (Homo sapiens) (UniProt Q53EL6); query COc1ccc(S(=O)(=O)N(Cc2nc(-c3ccc(OC)c(OC)c3)oc2C)[C@@H](C(=O)NO)C(C)C)cc1
[out] 0.86

[in] Retrieve RLU on Programmed cell death protein 4 (Homo sapiens) (UniProt Q53EL6); query CCOC(=O)c1nc(-c2cc(OC)c(OC)c(OC)c2)oc1C
[out] 1.09

[in] Retrieve RLU on Programmed cell death protein 4 (Homo sapiens) (UniProt Q53EL6); query COc1ccc(-c2nc(CCl)c(C)o2)cc1OC
[out] 1.06

[in] Retrieve RLU on Programmed cell death protein 4 (Homo sapiens) (UniProt Q53EL6); query COc1ccc(-c2nc(CN([C@@H](C(=O)O)C(C)C)S(=O)(=O)c3ccc(C)cc3)c(C)o2)cc1
[out] 1.05
